test.system: HLA-C*12:03
assay.overview: IEDB peptide-MHC binding, purified MHC/direct/fluorescence; filed as Kd, often an IC50 or EC50 that approximates it; bounds were set here for any values at or beyond the usual limits of such assays
condition.notes: source organism: human gammaherpesvirus 4
measured.quantity: Kd (nM)
State just the number; it will be interpreted in nM.

For the sequence shown here, SQAPLPCVL , give the reported Kd.
554

====

test.system: HLA-B*15:17
assay.overview: IEDB peptide-MHC binding, purified MHC/direct/fluorescence; filed as Kd, often an IC50 or EC50 that approximates it; bounds were set here for any values at or beyond the usual limits of such assays
condition.notes: source organism: Rickettsia sibirica 246
pKd: −log10 of the molar value.
measured.quantity: pKd

For the sequence shown here, EFVSANLAM , give the reported pKd.
≤ 4.70

====

test.system: HLA-B*27:03
assay.overview: IEDB peptide-MHC binding, purified MHC/competitive/fluorescence; filed as Kd, often an IC50 or EC50 that approximates it; bounds were set here for any values at or beyond the usual limits of such assays
condition.notes: source organism: Vibrio vulnificus YJ016
pKd: −log10 of the molar value.
measured.quantity: pKd

For the sequence shown here, IALPVAWLF , give the reported pKd.
≤ 4.70

====

test.system: HLA-A*03:01
assay.overview: IEDB peptide-MHC binding, purified MHC/competitive/fluorescence; filed as Kd, often an IC50 or EC50 that approximates it; bounds were set here for any values at or beyond the usual limits of such assays
condition.notes: source organism: Shigella sonnei Ss046
measured.quantity: Kd
Report the figure along with its unit, number first.

For the sequence shown here, MQLSRLTLR , give the reported Kd.
3.5 µM

====

test.system: HLA-A*02:03
assay.overview: IEDB peptide-MHC binding, purified MHC/competitive/fluorescence; filed as Kd, often an IC50 or EC50 that approximates it; bounds were set here for any values at or beyond the usual limits of such assays
condition.notes: source organism: Vibrio vulnificus CMCP6
pKd: −log10 of the molar value.
measured.quantity: pKd

For the sequence shown here, WLAGFEPSE , give the reported pKd.
≤ 4.70

====

Attribute: Kd
test.system: HLA-A*01:01
assay.overview: IEDB peptide-MHC binding, purified MHC/direct/fluorescence; filed as Kd, often an IC50 or EC50 that approximates it; bounds were set here for any values at or beyond the usual limits of such assays
condition.notes: source organism: Escherichia coli O157:H7

Solved entries:
sequence.data	Kd
VTRQIHNPR	≥ 20 µM
WLSVIAFGK	≥ 20 µM

Now take the following sequence into account.
For the sequence shown here, RVIRTVREK , give the reported Kd.
≥ 20 µM

====

test.system: HLA-A*68:01
assay.overview: IEDB peptide-MHC binding, purified MHC/competitive/radioactivity; filed as Kd, often an IC50 or EC50 that approximates it; bounds were set here for any values at or beyond the usual limits of such assays
condition.notes: source organism: Mammarenavirus whitewaterense
measured.quantity: Kd (nM)
State just the number; it will be interpreted in nM.

For the sequence shown here, SRLFEDLVWK , give the reported Kd.
605

====

test.system: HLA-B*07:02
assay.overview: IEDB peptide-MHC binding, purified MHC/competitive/fluorescence; bounds were set here for any values at or beyond the usual limits of such assays
condition.notes: source organism: Pan troglodytes
measured.quantity: IC50

For the sequence shown here, RPPYSSYGY , give the reported IC50.
≥ 20 µM
